Assay system: human MC4R receptor (human, UniProt P32245 1-332)
Sequence (P32245 whole entry): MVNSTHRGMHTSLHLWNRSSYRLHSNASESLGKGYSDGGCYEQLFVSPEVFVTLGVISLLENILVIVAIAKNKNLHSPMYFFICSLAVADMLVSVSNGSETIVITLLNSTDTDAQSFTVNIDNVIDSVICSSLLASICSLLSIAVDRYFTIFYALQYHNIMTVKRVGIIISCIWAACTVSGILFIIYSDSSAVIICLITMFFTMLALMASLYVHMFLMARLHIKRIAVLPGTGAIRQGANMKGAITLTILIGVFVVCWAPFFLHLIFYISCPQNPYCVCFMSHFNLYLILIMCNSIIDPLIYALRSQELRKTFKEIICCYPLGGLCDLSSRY
Experiment description: cell-based or functional assay
Positions of bridges follow the written chain, without caps; N, C: chain ends. Non-standard residues stand in square brackets, D forms with d. dPhe(4-Br) = N[C@H](Cc1ccc(Br)cc1)C(=O)O; Cit = NC(=O)NCCC[C@H](N)C(=O)O; Nle = CCCC[C@H](N)C(=O)O
A collection of binders and their measured cAMP EC50
Numeric only. Scale: nM

Example entries and their recorded answers appear below.
Ac-RC[dA]P[dPhe(4-Br)]RWC-NH2 (disulfide 2-8; SMILES CC(=O)N[C@@H](CCCNC(=N)N)C(=O)N[C@H]1CSSC[C@@H](C(N)=O)NC(=O)[C@H](Cc2c[nH]c3ccccc23)NC(=O)[C@H](CCCNC(=N)N)NC(=O)[C@@H](Cc2ccc(Br)cc2)NC(=O)[C@@H]2CCCN2C(=O)[C@@H](C)NC1=O) [CTX-2204]
58
Ac-RC[dA]R[dPhe(4-Br)][Cit][dW]C-NH2 (disulfide 2-8; SMILES CC(=O)N[C@@H](CCCNC(=N)N)C(=O)N[C@H]1CSSC[C@@H](C(N)=O)NC(=O)[C@@H](Cc2c[nH]c3ccccc23)NC(=O)[C@H](CCCNC(N)=O)NC(=O)[C@@H](Cc2ccc(Br)cc2)NC(=O)[C@H](CCCNC(=N)N)NC(=O)[C@@H](C)NC1=O) [CTX-1253]
7.6
Ac-RC[dA]R[dF][dR][dW]C-NH2 (disulfide 2-8; SMILES CC(=O)N[C@@H](CCCNC(=N)N)C(=O)N[C@H]1CSSC[C@@H](C(N)=O)NC(=O)[C@@H](Cc2c[nH]c3ccccc23)NC(=O)[C@@H](CCCNC(=N)N)NC(=O)[C@@H](Cc2ccccc2)NC(=O)[C@H](CCCNC(=N)N)NC(=O)[C@@H](C)NC1=O) [CTX-1283]
5860

Ask | cAMP EC50 lookup needed for Ac-RC[dA][dR][dPhe(4-Br)]R[dW]C-NH2 (disulfide 2-8) [CTX-1250] , thanks.
Reply | 185

Ask | cAMP EC50 lookup needed for Ac-RC[dA]R[dPhe(4-Br)]RWC-NH2 (disulfide 2-8) [CTX-2205] , thanks.
Reply | 8

Ask | cAMP EC50 lookup needed for Ac-R[Nle]CR[dPhe(4-Br)]R[dW]C-NH2 (disulfide 3-8; SMILES CCCC[C@H](NC(=O)[C@H](CCCNC(=N)N)NC(C)=O)C(=O)N[C@H]1CSSC[C@@H](C(N)=O)NC(=O)[C@@H](Cc2c[nH]c3ccccc23)NC(=O)[C@H](CCCNC(=N)N)NC(=O)[C@@H](Cc2ccc(Br)cc2)NC(=O)[C@H](CCCNC(=N)N)NC1=O) [CTX-1232] , thanks.
Reply | 2.4
